Test system: IL-1 alpha secretion by cocultures of fibroblasts and keratinocytes
Experiment: IL-1 alpha assay: ELISA of IL-1α secreted by fibroblast/keratinocyte cocultures exposed to a surfactant irritant with botanical added
Type: cell-based, human
Conditions: hand dishwashing detergent; average of 1%, 0.1%, 0.01%
Measured Percent IL-1 α Reduction AVG, listed per entry.
Give the quantity in %, number only.

1) Oc1cc(O)c2c(c1)O[C@H](c1ccc(O)c(O)c1)[C@H](O)C2 [Epicatechin] | 29.97
2) O=P(O)(O)O[C@H]1[C@H](OP(=O)(O)O)[C@@H](OP(=O)(O)O)[C@H](OP(=O)(O)O)[C@@H](OP(=O)(O)O)[C@H]1OP(=O)(O)O | 14.16

Now, please, on to the next molecule.
Form field Percent IL-1 α Reduction AVG, entry "CC(C)=CCCC(C)=CCCC(C)=CCO" : 19.10
